Here the recorded % relative activity by SPR is given for each entry.
# Assay target: T1, human Gal10-His (human, UniProt Q05315 2-142, limits assumed)
# T1 construct: also called hGal10-His; human Gal10-His tagged; not shown: His tag
# T1 sequence: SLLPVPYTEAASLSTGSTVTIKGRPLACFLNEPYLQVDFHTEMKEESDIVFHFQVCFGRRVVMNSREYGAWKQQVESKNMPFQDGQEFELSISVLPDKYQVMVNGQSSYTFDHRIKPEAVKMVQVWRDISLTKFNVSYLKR
# Test summary: SPR against T0 reference; sample 4 weeks at 5 C, then nebulized
Just the number please, in %, no unit attached.

Examples with answers:
Q: I'd like to know its % relative activity by SPR. The binder in question is g23H09 (Fab) (Fab, V domains shown, same VH/VL) VH: EVQLLESGGGLVQPGGSLRLSCAASGFTFRSYDMSWVRQAPGKGLEWVSAIAQFQHWTYYADSVKGRFTISRDNSKNTLYLQMNSLRAEDTAVYYCATTHGIGTLGFGSWGQGTLVTVSS VL: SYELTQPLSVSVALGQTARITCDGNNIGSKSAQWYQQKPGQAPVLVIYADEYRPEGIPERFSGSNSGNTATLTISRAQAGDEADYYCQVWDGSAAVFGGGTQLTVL
Result: 119

Q: Record request: % relative activity by SPR value, item g24F02_N53A (human Fab) (Fab, V domains shown, Human Fab backbone: human CH1 and human lambda constant domain (pUPEX vectors); also called g24F02_N53A_2W) VH: EVQLLESGGGLVQPGGSLRLSCAASGFTFSSYAMSWVRQAPGKGLEWVSAINAGGGSTSYADSVKGRFTISRDNSKNTLYLQMNSLRAEDTAVYYCAKGLRVGVLGFDYWGQGTLVTVSS VL: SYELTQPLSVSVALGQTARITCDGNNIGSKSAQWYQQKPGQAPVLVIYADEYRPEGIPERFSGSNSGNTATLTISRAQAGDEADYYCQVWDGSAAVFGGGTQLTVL
Result: 111

Further cases:
Q: For g7B07_N53A (human Fab) (Fab, V domains shown, VH assembled by inference as for g7B07; Human Fab backbone; also called g7B07_N53A (mean)) VH: EVQLLESGGGLVQPGGSLRLSCAASGFTFRSYDMSWVRQAPGKGLEWVSAIKAGGGITYYADSVKGRFTISRDNSKNTLYLQMNSLRAEDTAVYYCATTHGIGTLGFGSWGQGTLVTVSS VL: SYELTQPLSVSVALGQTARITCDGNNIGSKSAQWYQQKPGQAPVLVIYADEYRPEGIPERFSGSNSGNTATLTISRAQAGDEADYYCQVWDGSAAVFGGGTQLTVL , what is its reported % relative activity by SPR?
Result: 94
